Listing of entries alongside the reported pIC50.
# STUDY SYSTEM: SARS-CoV-2 Papain like protease (PLpro) (Severe acute respiratory syndrome coronavirus 2 (2019-nCoV) (SARS-CoV-2))
# ASSAY SUMMARY: Papain Like Protease (PLpro) biochemical assay with profluorogenic substrate Z-RLRGG-AMC
# PROTOCOL CONDITIONS: SARS-CoV-2 PLpro 6.25 nM, 25 μM Z-RLRGG-AMC substrate, 60 minute reaction; read-out: IC50
pIC50: −log10 of the molar value.
PARAMETER MEASURED: pIC50

| COMPOUND | PARAMETER MEASURED | QUANTITATIVE READOUT |
| --- | --- | --- |
| Cc1cc(C(=O)NCc2ncsc2C)ccc1C(=O)N[C@H](C)c1cc(-c2cnn(C)c2)nc2ccccc12 | pIC50 | 8.70 |
| Cc1cc(C(=O)NCc2cscn2)ccc1C(=O)N[C@H](C)c1cc(-c2cnn(C)c2)nc2ccccc12 | pIC50 | 8.52 |
| COC[C@@H](OCc1cocn1)c1ccc(C(=O)NC2(c3cc(-c4cc(C(=O)N(C)C)n[nH]4)cc4ncccc34)CC2)c(C)c1 (single isomer, unassigned) | pIC50 | 9.00 |

###

# STUDY SYSTEM: SARS-CoV-2 Papain like protease (PLpro) (Severe acute respiratory syndrome coronavirus 2 (2019-nCoV) (SARS-CoV-2))
# ASSAY SUMMARY: Papain Like Protease (PLpro) biochemical assay with profluorogenic substrate Z-RLRGG-AMC
# PROTOCOL CONDITIONS: IC50 (μM), SARS-CoV-2 PLpro 6.25 nM, 25 μM Z-RLRGG-AMC substrate, 60 minute reaction
PARAMETER MEASURED: IC50

| MOLECULE | RESULT |
| --- | --- |
| Cc1ccc(N2CC3CC(C2)N3C)cc1C(=O)NC1(c2cc(-c3cnn(C)c3)nc3ccccc23)CC1 [Example 290] | 0.001 µM |
| Cc1ccccc1C(=O)NC(C)c1cc(-c2cnn(C(F)F)c2)nc2ccccc12 (centres unmarked) [Example 105] | 0.266 µM |
| Cc1cnc(N2CC3CCC(C2)N3C)cc1C(=O)NC1(c2cc(-c3cnn(C)c3)nc3ccccc23)CC1 [Example 287] | 0.002 µM |
| CCn1cc(-c2cc(C(C)NC(=O)c3ccccc3C)c3ccccc3n2)cn1 (centres unmarked) [Example 110] | 0.224 µM |
| Cc1ccc(N2CCNCC2)cc1C(=O)NC1(c2cc(-c3cnn(C)c3)cc3ccccc23)CC1 [Example 230] | 0.003 µM |

###

# STUDY SYSTEM: SARS-CoV-2 Papain like protease (PLpro) (Severe acute respiratory syndrome coronavirus 2 (2019-nCoV) (SARS-CoV-2))
# ASSAY SUMMARY: Papain Like Protease (PLpro) biochemical assay with profluorogenic substrate Z-RLRGG-AMC
# PROTOCOL CONDITIONS: SARS-CoV-2 PLpro 6.25 nM, 25 μM Z-RLRGG-AMC substrate, 60 minute reaction; read-out: IC50
PARAMETER MEASURED: log10 of IC50 (log10 of the value in nM)

| COMPOUND | log10 of IC50 |
| --- | --- |
| Cc1cc(C(C)(C)NC(=O)c2cscn2)ccc1C(=O)N[C@H](C)c1cc(-c2cnn(C)c2)nc2ccccc12 | 2.23 |
| COC(=O)/C=C/C(=O)NNC(=O)CCc1ccccc1C(=O)NC(C)c1cc(-c2cnn(C)c2)cc2ccccc12 (stereo not drawn) | 0.70 |
| Cc1cc(CC(=O)N(C)C)ccc1C(=O)N[C@H](C)c1cc(-c2cnn(C)c2)nc2ccccc12 | 2.39 |
| Cc1cc(C2(NC(=O)c3ncc[nH]3)CC2)ccc1C(=O)N[C@H](C)c1cc(-c2cnn(C)c2)nc2ccccc12 | 2.34 |
| CNC(=O)/C=C/C(=O)NNC(=O)CCc1ccccc1C(=O)N[C@H](C)c1cc(-c2cnn(C)c2)nc2ccccc12 | 1.76 |
| Cc1cc(CNC(=O)c2ncc[nH]2)ccc1C(=O)NC(C)c1cc(-c2cnn(C)c2)cc2ccccc12 (stereo not drawn) | 1.59 |
| Cc1ccc(C(N)=O)cc1C(=O)NC(C)c1cc(-n2nccn2)cc2ccccc12 (stereo not drawn) | 3.14 |
| Cc1ccccc1C(=O)NC(C)c1cc(-c2cccnc2)nc2ccccc12 (stereo not drawn) | 2.94 |
| Cc1ccc(CN)cc1C(=O)N[C@H](C)c1cc(-n2cnnc2)nc2ccccc12 | 2.17 |
| Cc1cc(CC(=O)Nc2cscn2)ccc1C(=O)N[C@H](C)c1cc(-c2cnn(C)c2)nc2ccccc12 | 0.48 |
| Cc1ccccc1C(=O)NC(C)c1cc(CC2CCOCC2)nc2ccccc12 (stereo in doubt) | 2.79 |
| Cn1cc(-c2cc(C3(NC(=O)c4ccccc4CCC(=O)NNC(=O)/C=C/C(N)=O)CC3)c3ccccc3n2)cn1 | 1.23 |
| Cc1ccccc1C(=O)NC(C)c1cc(-c2csc(C#N)c2)nc2ccccc12 (stereo not drawn) | 2.79 |
| Cc1cc(C(=O)N(C)Cc2cscn2)ccc1C(=O)N[C@H](C)c1cc(-c2cnn(C)c2)nc2ccccc12 | 1.89 |
